These entries and their values trace back to ChEMBL document CHEMBL4024771.

microsomal CLint at 1 µM for assorted molecules
# TEST_DETAILS: Intrinsic clearance in human liver microsomes assessed per mg protein at 1 uM preincubated for 10 mins followed by NADPH addition measured after 45 mins by LC-MS/MS analysis
# Format: ADME, microsome
# TEST_CONDITIONS: liver microsomes, read-out: CLH
EXPERIMENTAL_ENDPOINT: microsomal CLint at 1 µM

MOLECULE | MEASURED_VALUE
COC(c1cc(Cl)c2c(c1Cl)C(=O)N(Cc1c(C)cc(C)[nH]c1=O)CC2)C1CCN(C(=O)CO)CC1 (single isomer, unassigned; (-)) | 23 µL/min/mg
COc1cc(C)[nH]c(=O)c1CN1CCc2c(Cl)cc([C@@H](O)C3COC3)c(Cl)c2C1=O | < 7 µL/min/mg
COc1cc(C)[nH]c(=O)c1CN1CCc2c(Cl)cc(C(OC)C3CCOC3)c(Cl)c2C1=O (single isomer, unassigned; form 2) | 75 µL/min/mg
COC(C)c1cc(Cl)c2c(c1Cl)C(=O)N(Cc1c(C)cc(C)[nH]c1=O)CC2 (single isomer, unassigned; (+)) | 190 µL/min/mg
Cc1cc(C)c(CN2CCc3c(Cl)cc(C(CO)C4CCOCC4)c(Cl)c3C2=O)c(=O)[nH]1 (stereo in doubt; (+)-8b) | 34.7 µL/min/mg

---

# TEST_DETAILS: Lipophilicity, log D of the compound at pH 7.4
# TEST_CONDITIONS: buffer, pH 7.4, logD
Threshold 2. logD below it: True. logD at it or above: False.

MOLECULE | CLASS
COc1cc(C)[nH]c(=O)c1CN1CCc2c(Cl)cc([C@H](O)C3COC3)c(Cl)c2C1=O | True
Cc1cc(C)c(CN2CCc3c(Cl)cc([C@H](C)CO)c(Cl)c3C2=O)c(=O)[nH]1 | False
Cc1cc(C)c(CN2CCc3c(Cl)cc([C@H](CO)[C@H]4CCCO4)c(Cl)c3C2=O)c(=O)[nH]1 | False
CCOC(c1cc(Cl)c2c(c1Cl)C(=O)N(Cc1c(C)cc(C)[nH]c1=O)CC2)C1CS(=O)(=O)C1 (single isomer, unassigned; (+)) | False
COc1cc(C)[nH]c(=O)c1CN1CCc2c(Cl)cc(-c3c(C)noc3C)c(Cl)c2C1=O | False
Cc1cc(C)c(CN2CCc3c(Cl)cc([C@H](CO)[C@@H]4CCCO4)c(Cl)c3C2=O)c(=O)[nH]1 | False
COC(c1cc(Cl)c2c(c1Cl)C(=O)N(Cc1c(C)cc(C)[nH]c1=O)CC2)C1CCN(C)CC1 (single isomer, unassigned; (+)) | True
COC(c1cc(Cl)c2c(c1Cl)C(=O)N(Cc1c(C)cc(C)[nH]c1=O)CC2)C1CCN(C2COC2)CC1 (single isomer, unassigned; (+)) | False
COc1cc(C)[nH]c(=O)c1CN1CCc2c(Cl)cc([C@@H](OC)C3COC3)c(Cl)c2C1=O | True
COC(c1cc(Cl)c2c(c1Cl)C(=O)N(Cc1c(C)cc(C)[nH]c1=O)CC2)C1CCOCC1 (single isomer, unassigned; (+)) | False
Cc1cc(C)c(CN2CCc3c(Cl)cc(C(CO)C4CCOC4)c(Cl)c3C2=O)c(=O)[nH]1 (stereo in doubt; (-)-6b) | False
COC(c1cc(Cl)c2c(c1Cl)C(=O)N(Cc1c(C)cc(C)[nH]c1=O)CC2)C1CCOC1 (single isomer, unassigned; (+)-10a) | False
COC(c1cc(Cl)c2c(c1Cl)C(=O)N(Cc1c(C)cc(C)[nH]c1=O)CC2)C1CCN(C(C)=O)CC1 (single isomer, unassigned; (+)) | False

---

# TEST_DETAILS: Kinetic solubility of the compound
# Assay type: physicochemical
Each entry below carries its reported Kinetic_solubility.

MOLECULE | Kinetic_solubility, µM
CCC(CO)c1cc(Cl)c2c(c1Cl)C(=O)N(Cc1c(C)cc(C)[nH]c1=O)CC2 (single isomer, unassigned; (+)) | 324
COC(c1cc(Cl)c2c(c1Cl)C(=O)N(Cc1c(C)cc(C)[nH]c1=O)CC2)C1CCN(C(=O)CO)CC1 (single isomer, unassigned; (-)) | 513
COC(c1cc(Cl)c2c(c1Cl)C(=O)N(Cc1c(C)cc(C)[nH]c1=O)CC2)C1CCN(C2COC2)CC1 (single isomer, unassigned; (-)) | 519
COC(c1cc(Cl)c2c(c1Cl)C(=O)N(Cc1c(C)cc(C)[nH]c1=O)CC2)C1CCN(C)CC1 (single isomer, unassigned; (-)) | 499
COC(c1cc(Cl)c2c(c1Cl)C(=O)N(Cc1c(C)cc(C)[nH]c1=O)CC2)C1CCOC1 (single isomer, unassigned; (-)10c) | 457
COC(C)c1cc(Cl)c2c(c1Cl)C(=O)N(Cc1c(C)cc(C)[nH]c1=O)CC2 (stereo in doubt; (-)9a) | 55.3

---

# TEST_DETAILS: Kinetic solubility of the compound
# Format: physicochemical
Reported values of Kinetic_solubility for individual entries
EXPERIMENTAL_ENDPOINT: Kinetic_solubility (µM)

COMPOUND | MEASURED_VALUE
CCC(OC)c1cc(Cl)c2c(c1Cl)C(=O)N(Cc1c(C)cc(C)[nH]c1=O)CC2 (single isomer, unassigned; (+)) | 33
COC(c1cc(Cl)c2c(c1Cl)C(=O)N(Cc1c(C)cc(C)[nH]c1=O)CC2)C1CCOC1 (single isomer, unassigned; (+)) | 439
COC(c1cc(Cl)c2c(c1Cl)C(=O)N(Cc1c(C)cc(C)[nH]c1=O)CC2)C1CCOCC1 (single isomer, unassigned; (-)) | 57.2
COc1cc(C)[nH]c(=O)c1CN1CCc2c(Cl)cc(C(OC)C3CCOC3)c(Cl)c2C1=O (stereo in doubt; 22b) | 439

---

# reported Papp at […], 2 µM; entries follow
# TEST_DETAILS: Passive permeability in MDCK cells at 2 uM after 90 mins by LC-MS/MS analysis
# Assay type: ADME, cell-based, Canis lupus familiaris
# TEST_CONDITIONS: dog, MDCK; read-out: permeability
EXPERIMENTAL_ENDPOINT: Papp at […], 2 µM (×10⁻⁶ cm/s)

MOLECULE | EXPERIMENTAL_ENDPOINT | UNIT_ABBREVIATION | MEASURED_VALUE
Cc1cc(C)c(CN2CCc3c(Cl)cc([C@@H](C)CO)c(Cl)c3C2=O)c(=O)[nH]1 | Papp at […], 2 µM | ×10⁻⁶ cm/s | 15
COC(c1cc(Cl)c2c(c1Cl)C(=O)N(Cc1c(C)cc(C)[nH]c1=O)CC2)C1CCN(C2COC2)CC1 (single isomer, unassigned; (+)) | Papp at […], 2 µM | ×10⁻⁶ cm/s | 7
COc1cc(C)[nH]c(=O)c1CN1CCc2c(Cl)cc(-c3c(C)noc3C)c(Cl)c2C1=O | Papp at […], 2 µM | ×10⁻⁶ cm/s | 11
COC(c1cc(Cl)c2c(c1Cl)C(=O)N(Cc1c(C)cc(C)[nH]c1=O)CC2)C1CCN(C)CC1 (single isomer, unassigned; (+)) | Papp at […], 2 µM | ×10⁻⁶ cm/s | 2.7
COC(c1cc(Cl)c2c(c1Cl)C(=O)N(Cc1c(C)cc(C)[nH]c1=O)CC2)C1CCN(C(=O)CO)CC1 (stereo in doubt; (+)-16a) | Papp at […], 2 µM | ×10⁻⁶ cm/s | 7.3
Cc1cc(C)c(CN2CCc3c(Cl)cc([C@H](CO)[C@H]4CCCO4)c(Cl)c3C2=O)c(=O)[nH]1 | Papp at […], 2 µM | ×10⁻⁶ cm/s | 4.1
COC(c1cc(Cl)c2c(c1Cl)C(=O)N(Cc1c(C)cc(C)[nH]c1=O)CC2)C1CCS(=O)(=O)CC1 (stereo in doubt; (+)-18a) | Papp at […], 2 µM | ×10⁻⁶ cm/s | 6.3
COc1cc(C)[nH]c(=O)c1CN1CCc2c(Cl)cc([C@H](O)C3COC3)c(Cl)c2C1=O | Papp at […], 2 µM | ×10⁻⁶ cm/s | 0.7
CCC(O)c1cc(Cl)c2c(c1Cl)C(=O)N(Cc1c(C)cc(C)[nH]c1=O)CC2 (single isomer, unassigned; (+)) | Papp at […], 2 µM | ×10⁻⁶ cm/s | 15
COc1cc(C)[nH]c(=O)c1CN1CCc2c(Cl)cc([C@H](OC)C3COC3)c(Cl)c2C1=O | Papp at […], 2 µM | ×10⁻⁶ cm/s | 4.8
Cc1cc(C)c(CN2CCc3c(Cl)cc([C@H](CO)[C@H]4CCOC4)c(Cl)c3C2=O)c(=O)[nH]1 | Papp at […], 2 µM | ×10⁻⁶ cm/s | 2.9
COc1cc(C)[nH]c(=O)c1CN1CCc2c(Cl)cc([C@@H](O)C3COC3)c(Cl)c2C1=O | Papp at […], 2 µM | ×10⁻⁶ cm/s | 1.2
Cc1cc(C)c(CN2CCc3c(Cl)cc([C@@H](CO)[C@H]4CCCO4)c(Cl)c3C2=O)c(=O)[nH]1 | Papp at […], 2 µM | ×10⁻⁶ cm/s | 8.5
Cc1cc(C)c(CN2CCc3c(Cl)cc(C(CO)C4CCOC4)c(Cl)c3C2=O)c(=O)[nH]1 (stereo in doubt; (-)-6b) | Papp at […], 2 µM | ×10⁻⁶ cm/s | 2.5
CCC(CO)c1cc(Cl)c2c(c1Cl)C(=O)N(Cc1c(C)cc(C)[nH]c1=O)CC2 (single isomer, unassigned; (+)) | Papp at […], 2 µM | ×10⁻⁶ cm/s | 10.9
